Target: human ether-à-go-go-related gene (hERG) potassium channel (human, UniProt Q12809);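 note: peak tail current of the secondary pulse compared with the same well before compound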
Sequence (Q12809 whole entry, looked up): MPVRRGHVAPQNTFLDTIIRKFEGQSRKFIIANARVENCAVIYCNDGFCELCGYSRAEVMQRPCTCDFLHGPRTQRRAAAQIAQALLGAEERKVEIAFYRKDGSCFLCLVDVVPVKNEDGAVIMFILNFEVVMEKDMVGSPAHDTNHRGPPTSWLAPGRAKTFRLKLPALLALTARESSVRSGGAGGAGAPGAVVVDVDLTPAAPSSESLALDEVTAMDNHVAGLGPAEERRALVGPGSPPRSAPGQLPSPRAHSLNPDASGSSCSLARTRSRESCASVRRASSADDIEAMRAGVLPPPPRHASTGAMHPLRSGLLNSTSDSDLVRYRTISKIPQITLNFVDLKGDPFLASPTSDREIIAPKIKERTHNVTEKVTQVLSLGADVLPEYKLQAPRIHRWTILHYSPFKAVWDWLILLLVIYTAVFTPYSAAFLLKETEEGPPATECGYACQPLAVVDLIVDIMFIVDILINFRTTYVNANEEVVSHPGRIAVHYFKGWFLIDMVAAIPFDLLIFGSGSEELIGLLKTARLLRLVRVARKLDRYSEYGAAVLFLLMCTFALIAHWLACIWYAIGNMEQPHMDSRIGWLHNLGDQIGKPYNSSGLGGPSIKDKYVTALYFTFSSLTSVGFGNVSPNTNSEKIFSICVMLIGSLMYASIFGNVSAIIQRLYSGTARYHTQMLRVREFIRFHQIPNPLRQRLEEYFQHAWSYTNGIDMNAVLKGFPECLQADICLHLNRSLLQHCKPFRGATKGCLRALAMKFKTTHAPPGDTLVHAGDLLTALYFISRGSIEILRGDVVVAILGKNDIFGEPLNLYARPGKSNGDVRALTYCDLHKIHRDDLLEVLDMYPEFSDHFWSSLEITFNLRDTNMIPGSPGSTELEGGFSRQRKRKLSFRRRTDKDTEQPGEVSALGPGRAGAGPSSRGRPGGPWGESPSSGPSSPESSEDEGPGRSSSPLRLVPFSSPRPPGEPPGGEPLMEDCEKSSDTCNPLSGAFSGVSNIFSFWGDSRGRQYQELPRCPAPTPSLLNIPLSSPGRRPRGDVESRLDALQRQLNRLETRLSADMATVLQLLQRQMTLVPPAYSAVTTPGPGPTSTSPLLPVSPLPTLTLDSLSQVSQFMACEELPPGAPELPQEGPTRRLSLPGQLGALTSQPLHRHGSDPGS
Experiment: primary screen, population patch clamp on CHO cells stably expressing hERG; higher = less effect of the substance
Among all 310,000 compounds or so, about 14,000 (4.5%) showed an effect of 50% or more. Effects have a minus sign here. Many of the other results were omitted from the sample, so strong results are more common in it than they were.
// hERG current change (%, negative = inhibition) at 10uM lookup, one value per entry
Attribute measured: hERG current change (%, negative = inhibition) at 10uM (%)

| Compound | Numeric value |
| --- | --- |
| O=C(C1=C(O)C(=O)N(CCCn2ccnc2)C1c1ccc(F)cc1)c1ccco1 (stereo not shown) | 15.8 |
| CCCCOCCCNC(=O)N[C@@H](CCSC)C(=O)OC | 16.3 |
| CCOc1ccc(-c2nnc3ccc(SCC(=O)NCc4ccco4)nn23)cc1 | -8.72 |
| Cc1ccc(NC(=O)COC(=O)COc2ccc3ccc(=O)oc3c2)cc1[N+](=O)[O-] | 3.51 |
| CCOc1ccc2c(c1)-c1c(ssc1=S)C(C)(C)N2C | -3.7 |
| COc1ccc(-n2nc(C(=O)NCC(=O)NCCCN3CCOCC3)c3ccccc3c2=O)cc1Cl | -12.6 |
| CN(C)C(=O)N1CCC(C(=O)N2CCCC(C(=O)c3cccc4ccccc34)C2)CC1 (stereo not shown) | -33.8 |
| Cc1ccc(Nc2ccc(C(N)=O)cc2[N+](=O)[O-])cc1C | 8.9 |
| O=C(C1CC1)N(Cc1ccco1)c1nc(-c2ccccc2)cs1 | -8.62 |
| N#Cc1cc(F)c(N2CCNCC2)cc1Cl | 3.42 |
| O=C(c1cccc(F)c1)N1CCCN(C(=O)c2cccc(F)c2)CC1 | -6.95 |
| Cc1ccc(NC(=O)CSCC(=O)NCc2ccco2)cc1 | -0.0131 |
| COc1ccc(NC(=S)NC2CC3CCC(C2)N3Cc2ccco2)cc1 (stereo not shown) | -30.1 |
| Cc1cc(N2CCOCC2)n2cc(-c3ccc(F)cc3)nc2n1 | -69 |
| O=C(CSc1ccc2nnc(-c3ccccn3)n2n1)NCC1CCCO1 (stereo not shown) | -8.53 |
| Cc1cc(N2CCN(C(=O)c3cccs3)CC2)c(F)cc1[N+](=O)[O-] | -67 |
| CCOC(=O)C1CCCN(C(=O)CNC(=O)c2nn(-c3ccc(OC)c(Cl)c3)c(=O)c3ccccc23)C1 (stereo not shown) | -5.66 |
| Cc1cc(NC(=O)CSc2nc3ccccc3c(=O)n2CCCC(=O)NCc2ccccc2)n[nH]1 | -8.72 |
| O=C(CSc1nc(-c2ccccc2)c(-c2ccccc2)[nH]1)NCc1ccco1 | -1.63 |
| COc1ccc(-n2nc(C(=O)NCC(=O)NCc3ccccc3OC)c3ccccc3c2=O)cc1 | -69.5 |
| COc1ccc(C2CC(C(F)(F)F)n3nc(C(=O)Nc4ccc5c(c4)OCO5)cc3N2)cc1 (stereo not shown) | 10.5 |
| CCOC(=O)C1CCN(C(=O)CNC(=O)c2nn(-c3ccc(OC)c(Cl)c3)c(=O)c3ccccc23)CC1 | -55 |
| Cc1ccc(NC(=O)Cn2nc(C)c3ccccc3c2=O)c(C)c1 | 10.2 |
| O=C(CCSCCC(=O)NCc1ccco1)NCc1ccco1 | 6.38 |
| N#Cc1ccc(N2CCN(C(=O)c3cccc(F)c3)CC2)c(F)c1 | -66.8 |
